target: UniProt P20309; assay: Agonist activity at human muscarinic M3 receptor expressed in CHO cells assessed as stimulation of ERK1/2 phosphorylation after 15 mins by Alphascreen Surefire assay; type: cell-based
Sequence (P20309 whole entry, looked up): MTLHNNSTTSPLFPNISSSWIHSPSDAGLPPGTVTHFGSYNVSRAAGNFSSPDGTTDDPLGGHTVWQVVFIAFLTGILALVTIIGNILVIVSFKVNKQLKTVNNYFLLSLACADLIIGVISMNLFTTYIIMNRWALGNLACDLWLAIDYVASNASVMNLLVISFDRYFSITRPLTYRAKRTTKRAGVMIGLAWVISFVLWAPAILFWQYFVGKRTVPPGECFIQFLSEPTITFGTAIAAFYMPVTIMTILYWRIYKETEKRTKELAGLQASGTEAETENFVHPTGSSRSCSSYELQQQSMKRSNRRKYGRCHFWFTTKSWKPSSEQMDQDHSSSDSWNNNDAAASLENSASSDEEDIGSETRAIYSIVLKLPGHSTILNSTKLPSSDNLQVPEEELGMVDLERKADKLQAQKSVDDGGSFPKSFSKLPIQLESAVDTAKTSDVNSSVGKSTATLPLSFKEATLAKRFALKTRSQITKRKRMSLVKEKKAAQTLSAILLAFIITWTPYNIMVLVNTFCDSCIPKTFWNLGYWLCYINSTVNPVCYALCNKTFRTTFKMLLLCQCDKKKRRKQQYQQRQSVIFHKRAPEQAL
The source made the active and inactive calls. No cut-off for these calls is given here.
endpoint: Activity

{"smiles input": "c1cc(N2CCNCC2)c2cc[nH]c2c1", "reported result": "inactive"}
{"smiles input": "Clc1cccc(N2CCNCC2)c1Cl", "reported result": "inactive"}
{"smiles input": "Cc1cc(N2CCNCC2)nc2ccccc12", "reported result": "inactive"}
{"smiles input": "Clc1cc(Cl)cc(N2CCNCC2)c1", "reported result": "inactive"}

====

target: Muscarinic acetylcholine receptor M4 (Homo sapiens); assay: Agonist activity at human muscarinic M4 receptor expressed in CHO cells assessed as stimulation of ERK1/2 phosphorylation after 15 mins by Alphascreen Surefire assay; type: cell-based
Activity calls are given as the source filed them. The calls are words filed in the database; no cut-off is given here.

{"smiles input": "Clc1cccc(N2CCNCC2)c1Cl", "Activity": "inactive"}
{"smiles input": "Cc1cc(N2CCNCC2)nc2ccccc12", "Activity": "inactive"}
{"smiles input": "Clc1cc(Cl)cc(N2CCNCC2)c1", "Activity": "inactive"}
{"smiles input": "c1cc(N2CCNCC2)c2cc[nH]c2c1", "Activity": "inactive"}

====

biological target: Muscarinic acetylcholine receptor M4 (Homo sapiens, UniProt P08173); assay: Displacement of [3H]-NMS from recombinant muscarinic M4 receptor (unknown origin) expressed in CHOK1 cells after 60 mins by liquid scintillation counting analysis
Sequence (P08173 whole entry): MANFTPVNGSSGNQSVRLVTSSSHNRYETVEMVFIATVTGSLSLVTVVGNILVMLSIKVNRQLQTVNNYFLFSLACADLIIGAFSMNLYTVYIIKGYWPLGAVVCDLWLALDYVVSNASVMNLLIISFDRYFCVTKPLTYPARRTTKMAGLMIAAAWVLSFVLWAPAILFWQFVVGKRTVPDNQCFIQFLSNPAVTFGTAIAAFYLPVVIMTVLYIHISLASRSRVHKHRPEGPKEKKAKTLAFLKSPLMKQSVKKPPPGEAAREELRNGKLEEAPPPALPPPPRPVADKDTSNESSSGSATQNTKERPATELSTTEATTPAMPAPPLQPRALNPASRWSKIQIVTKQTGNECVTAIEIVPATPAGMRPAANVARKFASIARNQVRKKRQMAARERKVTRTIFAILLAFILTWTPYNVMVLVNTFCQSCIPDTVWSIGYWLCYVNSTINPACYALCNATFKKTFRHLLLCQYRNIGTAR

{"smiles input": "Clc1cc(Cl)cc(N2CCNCC2)c1", "units symbol": "µM", "Ki": 31.6}

====

target: Muscarinic acetylcholine receptor M3 (Homo sapiens); test: Displacement of [3H]-NMS from recombinant muscarinic M3 receptor (unknown origin) expressed in CHOK1 cells after 60 mins by liquid scintillation counting analysis
Sequence (P20309 whole entry): as the sequence (P20309 whole entry, looked up) above
pKi: −log10 of the molar value.
endpoint: pKi

{"smiles input": "Clc1cc(Cl)cc(N2CCNCC2)c1", "target desc": "Muscarinic acetylcholine receptor M3 (Homo sapiens)", "reported result": 5.10}

Hello, the source for this data is ChEMBL document CHEMBL2331162, in case you need it.
